test: Plasma Compound 1 levels in dogs (LC/MS-MS); type: in vivo; conditions: mongrel, dog, plasma, iv, 0.01 mg/kg, plasma Compound 1 concentration, dogs, 0.01 mg/kg i.v., 10 min
MEASUREMENT TYPE: concentration at 10 min (ng/mL)
Answer format: numeric, ng/mL implied, no suffix.

INPUT: Report measured concentration at 10 min; entry is CN1C(=O)c2c(nn(Cc3ccc(-c4cccc(F)n4)cc3)c2Nc2ccccc2)N2C1=N[C@@H]1CCC[C@@H]12
OUTPUT: 23.6

====

test: Plasma level in rabbits (LC/MS-MS); type: in vivo; conditions: male, New Zealand White, iv, rabbit, 0.1 mg/kg i.v.
MEASUREMENT TYPE: concentration at 15 min (ng/mL)
Report the value in ng/mL with no unit label.

INPUT: Hello, please tell me recorded concentration at 15 min for this one: CN1C(=O)c2c(nn(Cc3ccc(-c4cccc(F)n4)cc3)c2Nc2ccccc2)N2C1=N[C@@H]1CCC[C@@H]12
OUTPUT: 213

====

target: r-hPDE1A (Homo sapiens); construct: Its Kis for full-length recombinant r-hPDE1A, 1B, and 1C are 34, 380, and 37 pM; assay: Ki for full-length recombinant PDE1A
Sequence (P54750 whole entry): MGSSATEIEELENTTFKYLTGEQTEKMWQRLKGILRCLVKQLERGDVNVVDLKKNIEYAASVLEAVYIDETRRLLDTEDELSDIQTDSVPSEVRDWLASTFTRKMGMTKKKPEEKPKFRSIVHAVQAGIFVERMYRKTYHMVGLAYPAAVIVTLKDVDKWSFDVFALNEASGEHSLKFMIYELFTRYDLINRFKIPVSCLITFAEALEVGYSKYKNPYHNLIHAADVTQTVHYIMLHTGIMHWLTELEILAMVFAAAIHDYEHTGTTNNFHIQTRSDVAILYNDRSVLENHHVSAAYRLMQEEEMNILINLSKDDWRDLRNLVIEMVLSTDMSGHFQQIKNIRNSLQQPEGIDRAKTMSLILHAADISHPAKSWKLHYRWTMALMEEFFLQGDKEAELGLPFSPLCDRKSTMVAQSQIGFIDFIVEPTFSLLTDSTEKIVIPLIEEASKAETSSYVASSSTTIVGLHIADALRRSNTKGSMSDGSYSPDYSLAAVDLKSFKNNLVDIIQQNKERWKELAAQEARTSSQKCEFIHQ
MEASUREMENT TYPE: Ki

INPUT: Please give the documented Ki of CN1C(=O)c2c(nn(Cc3ccc(-c4cccc(F)n4)cc3)c2Nc2ccccc2)N2C1=N[C@@H]1CCC[C@@H]12
OUTPUT: 0.034 nM

====

target: r-hPDE1C (Homo sapiens, UniProt Q14123); construct: Its Kis for full-length recombinant r-hPDE1A, 1B, and 1C are 34, 380, and 37 pM; experiment: Ki for full-length recombinant PDE1C
Sequence (Q14123 whole entry): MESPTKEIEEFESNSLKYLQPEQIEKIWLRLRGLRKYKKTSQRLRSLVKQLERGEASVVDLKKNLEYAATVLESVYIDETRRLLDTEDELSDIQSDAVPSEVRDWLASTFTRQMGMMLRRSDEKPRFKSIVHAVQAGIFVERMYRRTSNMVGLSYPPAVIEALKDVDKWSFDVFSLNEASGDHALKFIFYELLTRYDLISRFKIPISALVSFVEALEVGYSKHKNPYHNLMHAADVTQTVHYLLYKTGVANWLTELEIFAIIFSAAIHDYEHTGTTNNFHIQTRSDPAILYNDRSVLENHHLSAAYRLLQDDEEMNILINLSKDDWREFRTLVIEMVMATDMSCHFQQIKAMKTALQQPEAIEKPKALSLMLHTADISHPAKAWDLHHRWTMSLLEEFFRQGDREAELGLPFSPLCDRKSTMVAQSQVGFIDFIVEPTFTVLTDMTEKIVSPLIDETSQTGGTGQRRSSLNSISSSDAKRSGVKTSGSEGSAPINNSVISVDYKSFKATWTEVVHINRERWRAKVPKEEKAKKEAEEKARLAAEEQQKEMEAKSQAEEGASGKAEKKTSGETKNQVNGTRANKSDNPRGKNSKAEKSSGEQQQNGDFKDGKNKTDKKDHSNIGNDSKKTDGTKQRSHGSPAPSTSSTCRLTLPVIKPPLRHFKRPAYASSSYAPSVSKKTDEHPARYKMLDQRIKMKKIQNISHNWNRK
MEASUREMENT TYPE: pKi
Scale for pKi: -log10 of concentration given in mol/L; no unit attached.

INPUT: Fill in reported pKi for this entry: CN1C(=O)c2c(nn(Cc3ccc(-c4cccc(F)n4)cc3)c2Nc2ccccc2)N2C1=N[C@@H]1CCC[C@@H]12
OUTPUT: 10.43

====

assay: Plasma Compound 1 levels in dogs (LC/MS-MS); format: in vivo; details: mongrel, dog, plasma, iv, 0.1 mg/kg, plasma Compound 1 concentration, normal dogs, 0.1 mg/kg i.v., 30 min
MEASUREMENT TYPE: concentration at 30 min (ng/mL)
Quick reminder: number only, in ng/mL, skip the unit.

INPUT: Input CN1C(=O)c2c(nn(Cc3ccc(-c4cccc(F)n4)cc3)c2Nc2ccccc2)N2C1=N[C@@H]1CCC[C@@H]12 , output reported concentration at 30 min.
OUTPUT: 94.5
